target: LiaS (GST-LiaS, liaS^126) (Bacillus subtilis, UniProt O32198)
Sequence (O32198 126-360): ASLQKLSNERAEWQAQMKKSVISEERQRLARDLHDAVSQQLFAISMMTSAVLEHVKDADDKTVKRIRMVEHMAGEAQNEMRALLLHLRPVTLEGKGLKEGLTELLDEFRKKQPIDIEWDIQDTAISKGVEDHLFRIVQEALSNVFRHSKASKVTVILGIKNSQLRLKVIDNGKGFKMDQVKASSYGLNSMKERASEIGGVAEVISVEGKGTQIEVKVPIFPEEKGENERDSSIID
Metric Name: pKd
Interpret pKd as the negative base-10 log of the concentration measured in mol/L.

Value of measured pKd for the entry Nc1ncnc2c1ncn2[C@@H]1O[C@H](COP(=O)(O)OP(=O)(O)OP(=O)(O)O)[C@@H](O)[C@H]1O [ATP] : 5.15
